System: Plasmodium berghei
assay_text: Screen against P. berghei liver stage (PbLuc), transformed with Luciferase, at 10uM
Format: functional, HepG2
conditions: tested at 10 uM
In all, about 69,000 compounds went through this assay and about 8,600 (12%) showed an effect of 50% or more. What follows is part of a selection rich in strong results, with near analogues and random picks from the rest.

molecule | INHIBITION
Cc1nn(C)c(C)c1C1COCCN1C(=O)CSC(C)(C)C (stereo unspecified) | 37.6%
COc1cc(CN2CCCC2)ccc1Oc1ncccc1C(F)(F)F | 80.3%
CNC(=O)N1CCOCC1c1c(C)nn(C)c1C (stereo unspecified) | 28.7%
COCCNC(=O)N1CCOCC1c1c(C)nn(C)c1C (stereo unspecified) | 51%
COc1ccc(Oc2nccc3occc23)cc1CN1CCCC1 | -4.23%
COc1ccc(CC(=O)Nc2cccnc2N2CCCC2)cc1OC | 4.71%

====

System: Plasmodium berghei
assay_text: Screen against P. berghei liver stage (PbLuc), transformed with Luciferase, at 10uM
Assay type: functional, HepG2
conditions: tested at 10 uM
Out of some 69,000 compounds screened, about 8,600 (12%) showed an effect of 50% or more. The sample holds strong results, similar compounds and a random draw of the others, so the mix is not that of the screen.
Threshold rule: INHIBITION greater than or equal to 10% is label 1; below that, label 0.

molecule | assigned_class
CCN(c1ccc(C(=O)N2CCCCCC2)cc1)S(=O)(=O)CC | label 0
N#Cc1ccc(CNC(=O)NCCNC(=O)C2CCCC2)c(F)c1 | label 1
CCSc1cc(C(=O)NCc2ccc(C(=O)NC)cc2)ccn1 | label 1
CCN(CC1CN(Cc2cccnc2)CCO1)c1cccnn1 (configuration not stated) | label 1
COCc1nc(CN2CCOC(CN(C)c3cccnn3)C2)cs1 (configuration not stated) | label 0
O=S(=O)(CCNCCn1cccn1)c1ccccc1 | label 1
CC1CCCCN1CCNC(=O)NCc1ccc(C#N)cc1F (configuration not stated) | label 1
CCN(CC1CN(Cc2ccccn2)CCO1)c1cccnn1 (configuration not stated) | label 0
CCN(CC1CN(Cc2cccc(C#N)c2)CCO1)c1cccnn1 (configuration not stated) | label 1
COc1ccc(C(=O)NCc2ccc(C(=O)O)o2)cc1 | label 1
CC(O)CCN(C)C(=O)Nc1ccc(Br)cc1 (configuration not stated) | label 0
CCN(CC1CN(CCc2ccccn2)CCO1)c1cccnn1 (configuration not stated) | label 0

====

Test system: Plasmodium berghei
assay_text: Screen against P. berghei liver stage (PbLuc), transformed with Luciferase, at 10uM
Format: functional, HepG2
conditions: tested at 10 uM
Screen size: about 69,000 compounds; about 8,600 (12%) showed an effect of 50% or more. Shown is part of a subset that was picked to be rich in strong results.

compound | measured_on | units | INHIBITION
CN(CCOc1cccc(CNC(=O)C2CC2)c1)C1CCOCC1 | Plasmodium berghei | % | 29.2
CN(CCOc1cccc(CNS(C)(=O)=O)c1)C1CCOCC1 | Plasmodium berghei | % | 39.5
CCn1cc(CN2CCN(CC(O)c3ccc(C)cc3C)CC2)c(C)n1 (stereo unspecified) | Plasmodium berghei | % | 28
COCC(=O)NCc1cccc(OCCN(C)C2CCOCC2)c1 | Plasmodium berghei | % | 88.1
CCC(CC)NC(=O)Cn1cc(-c2ccccc2)cn1 | Plasmodium berghei | % | 48.4
CCC(NC1Cc2ccccc2C1)c1ccc(S(C)(=O)=O)cc1 (stereo unspecified) | Plasmodium berghei | % | 29.4

====

Test system: Plasmodium berghei
assay_text: Screen against P. berghei liver stage (PbLuc), transformed with Luciferase, at 10uM
Type: functional, HepG2
conditions: tested at 10 uM
Hit rate of the full screen: of about 69,000 compounds, about 8,600 (12%) showed an effect of 50% or more. The sample holds strong results, similar compounds and a random draw of the others, so the mix is not that of the screen.
Entries whose INHIBITION is below 40% take Yes; entries at or above 40% take No.

smiles_representation | assigned_class
CN(C)[C@@H]1CCN(C(=O)c2ccsc2)[C@H]1Cc1cnn(C)c1 | No
CN(C)[C@@H]1CCN(C(=O)c2cccn2C)[C@H]1Cc1cnn(C)c1 | No
COCCO[C@@H]1CCN(C(=O)c2ccc[nH]2)[C@H]1Cc1cnn(C)c1 | Yes
COCCCOc1ccc(C(=O)N(C)Cc2cccc(O)c2)cn1 | Yes
Cn1cc(C[C@H]2[C@@H](O)CCN2C(=O)c2ccc[nH]2)cn1 | Yes

====

Tested on: Plasmodium berghei
assay_text: Screen against P. berghei liver stage (PbLuc), transformed with Luciferase, at 10uM
Type: functional, HepG2
conditions: tested at 10 uM
The whole screen tested about 69,000 compounds, of which about 8,600 (12%) showed an effect of 50% or more. This is one part of a sample in which strong results are shown more often than they occur.
Doc: threshold 6% (exclusive). Items with INHIBITION beneath it return y; others return n.

compound | measured_on | assigned_class
Cn1cc(CN2CC[C@H]3O[C@@H](COCc4cccnc4)CC[C@H]32)cn1 | Plasmodium berghei | y
OC1(Cn2ccnc2)CCN(C[C@]2(O)CCCN3CCCC[C@@H]32)CC1 | Plasmodium berghei | n
CC(C)c1nnc2n1CC(CNCc1ccc3c(c1)OCCO3)CC2 (stereo not given) | Plasmodium berghei | n
CC(C)(C)OC(=O)N[C@@H]1C[C@@H](O)CN(C(=O)c2ccc(F)cc2)C[C@H]1O | Plasmodium berghei | n
CCN(C)c1ncnc2c1CCN(Cc1ccc(F)cc1)CC2 | Plasmodium berghei | n

====

System: Plasmodium berghei
assay_text: Screen against P. berghei liver stage (PbLuc), transformed with Luciferase, at 10uM
Type: functional, HepG2
conditions: tested at 10 uM
The whole screen tested about 69,000 compounds, of which about 8,600 (12%) showed an effect of 50% or more. This excerpt belongs to a sample that is enriched for strong results.
Measured INHIBITION of individual entries

compound | INHIBITION
O=C(Nc1cccnc1-n1cc(Cl)cn1)C1CCCC1 | 48%
CCC(CO)N(Cc1ccsc1)Cc1ccccc1C#N (configuration not stated) | 37.6%
CCC(CO)N(Cc1ccsc1)CC1CC1 (configuration not stated) | 50.7%
Cc1ccc(-c2ccnc(NCC(O)c3ccc(O)cc3)n2)c(C)n1 (configuration not stated) | 37.8%
O=C(Nc1cccnc1-n1cc(Cl)cn1)C1CCCCC1 | 52.6%
CCC(CO)N(Cc1ccsc1)Cc1ccccc1C(=O)O (configuration not stated) | -69.3%
CCCSCC(=O)NCc1cccc(CN(C)CC)c1 | 39.8%
Cc1cnn(CCNCc2csc(-c3ccccc3)n2)c1 | 34.75%
Cc1ccc(CC(=O)N2CCCC(n3ccnc3C(C)C)C2)cn1 (configuration not stated) | -9.19%
O=C(c1cnccn1)N1C[C@@H](OCc2ccncc2)[C@@H]2OCCC[C@@H]21 | 33%
Cc1cc(NC(=O)CCn2nc(C)c3ccccc32)n(C)n1 | 26.7%
CN(Cc1ccco1)[C@@H]1CN(Cc2ccncc2)C[C@@H]2CCCO[C@@H]21 | 23.5%

====

System: Plasmodium berghei
assay_text: Screen against P. berghei liver stage (PbLuc), transformed with Luciferase, at 10uM
Format: functional, HepG2
conditions: tested at 10 uM
About 8,600 (12%) of roughly 69,000 compounds showed an effect of 50% or more. This is one part of a sample in which strong results are shown more often than they occur.
INHIBITION vs 40%: less than gives class 1; not less than gives class 0.

compound | assigned_class
COCC(=O)N[C@H]1C[C@@H](C(=O)NCCc2cccc(Cl)c2)N(C)C1 | class 1
COc1cccc(C=CCCN2CCC(C(=O)N3CCCC3)CC2)c1 | class 1
CC(C)NC(=O)N1CCN(C(=O)C2CCOCC2)CC2(CNC(=O)C2)C1 (configuration not stated) | class 1
Cc1ncn(-c2cc(N3CCN(S(C)(=O)=O)CC3)ncn2)c1C | class 0
Cc1ccc(C(=O)N2C[C@H]3CCC[C@@]3(COCC3CCOCC3)C2)o1 | class 0
O=C(c1ncccn1)N1C[C@H]2CCC[C@@]2(COCc2ccncc2)C1 | class 1
CN1CC(=O)N(c2ccccc2)CC12CCN(CC1CC1)C2 (configuration not stated) | class 0
COCC[C@]1(O)CCN(C2CCN(C(=O)C3CCC3)CC2)C[C@H]1C | class 1
O=C(c1ccnnc1)N1C[C@H]2CCC[C@@]2(COCC2CCOCC2)C1 | class 0
O=C(c1cccs1)N1C[C@H]2CCC[C@@]2(COCC2CCOCC2)C1 | class 0
O=C(c1cccnc1)N1CCCC2(CCN(c3ccsc3)C2=O)C1 (configuration not stated) | class 1
CCCS(=O)(=O)N1CCN(c2cc(-n3cnc(C)c3C)ncn2)CC1 | class 1
CN(CCC(=O)N1CCc2sccc2C1)Cc1cnn(C)c1 | class 1
Cc1ncoc1C(=O)N1C[C@H]2CCC[C@@]2(COCC2CCOCC2)C1 | class 0
O=C(c1ccccn1)N1C[C@H]2CCC[C@@]2(COCC2CCOCC2)C1 | class 0
CCOC(=O)N[C@H]1C[C@@H](C(=O)NCCc2cccc(Cl)c2)N(C)C1 | class 0
Brc1ccc(CNCc2nnc3n2CCC3)s1 | class 1
Cc1nnc(NC(=O)NCc2ccc(N3CCOCC3)nc2)s1 | class 1
NC(=O)CN(Cc1ncc(-c2ccc(Cl)cc2)o1)C1CCCC1 | class 1
CSCCNC(=O)c1ccc(OC2CCN(CC(C)(C)C)CC2)c(Cl)c1 | class 0
Cc1nc(N2CCN(S(C)(=O)=O)CC2)cc(-n2cnc(C)c2C)n1 | class 1
c1csc(CN2C[C@H]3CCC[C@@]3(COCC3CCOCC3)C2)n1 | class 0
